This collection of values is drawn from ChEMBL document CHEMBL4251634.

Could you please report measured zone of inhibition at 100 µg/disc for the items listed next?
Tested on: Pseudomonas aeruginosa
Experiment: Antibacterial activity against Pseudomonas aeruginosa assessed as diameter of inhibition zone at 100 ug/well after 24 hrs by agar well diffusion method
Assay type: functional
Details: read-out: DIZ
The response must be a number in mm with no trailing unit.

For reference, reported zone of inhibition at 100 µg/disc for Cc1ccc(-c2nnc(CSc3cc(C)nc(SCc4nnc(-c5ccc(C)cc5)s4)n3)s2)cc1 stands at 19

For reference, reported zone of inhibition at 100 µg/disc for Cc1ccc(-c2nnc(CSc3cc(C)nc(SCc4nnc(-c5ccc(C)cc5)o4)n3)o2)cc1 stands at 12

For reference, reported zone of inhibition at 100 µg/disc for Cc1cc(SCc2nnc(-c3ccc(Br)cc3)s2)nc(SCc2nnc(-c3ccc(Br)cc3)s2)n1 stands at 29

For reference, reported zone of inhibition at 100 µg/disc for Cc1cc(SCc2nnc(-c3ccc([N+](=O)[O-])cc3)n2N)nc(SCc2nnc(-c3ccc([N+](=O)[O-])cc3)n2N)n1 stands at 31

For reference, reported zone of inhibition at 100 µg/disc for Cc1cc(SCc2nnc(-c3ccccc3)n2N)nc(SCc2nnc(-c3ccccc3)n2N)n1 stands at 23

For reference, reported zone of inhibition at 100 µg/disc for Cc1cc(SCc2nnc(-c3ccccc3)s2)nc(SCc2nnc(-c3ccccc3)s2)n1 stands at 24

For reference, reported zone of inhibition at 100 µg/disc for Cc1cc(SCc2nnc(-c3ccc(Cl)cc3)n2N)nc(SCc2nnc(-c3ccc(Cl)cc3)n2N)n1 stands at 27

For reference, reported zone of inhibition at 100 µg/disc for O=C(N[C@H](CO)[C@H](O)c1ccc([N+](=O)[O-])cc1)C(Cl)Cl stands at 32

For reference, reported zone of inhibition at 100 µg/disc for Cc1cc(SCc2nnc(-c3ccc(Cl)cc3)o2)nc(SCc2nnc(-c3ccc(Cl)cc3)o2)n1 stands at 17

For reference, reported zone of inhibition at 100 µg/disc for COc1ccc(-c2nnc(CSc3cc(C)nc(SCc4nnc(-c5ccc(OC)cc5)s4)n3)s2)cc1 stands at 10

For reference, reported zone of inhibition at 100 µg/disc for Cc1cc(SCc2nnc(-c3ccc([N+](=O)[O-])cc3)o2)nc(SCc2nnc(-c3ccc([N+](=O)[O-])cc3)o2)n1 stands at 21

For reference, reported zone of inhibition at 100 µg/disc for Cc1ccc(-c2nnc(CSc3cc(C)nc(SCc4nnc(-c5ccc(C)cc5)n4N)n3)n2N)cc1 stands at 18

For reference, reported zone of inhibition at 100 µg/disc for Cc1cc(SCc2nnc(-c3ccc(Br)cc3)o2)nc(SCc2nnc(-c3ccc(Br)cc3)o2)n1 stands at 15

###

Tested on: Pseudomonas aeruginosa
Assay: Antibacterial activity against Pseudomonas aeruginosa assessed as diameter of inhibition zone at 12.5 ug/well after 24 hrs by agar well diffusion method
Format: functional
Settings: read-out: DIZ
Decision: zone of inhibition at 12.5 µg/disc compared against 10 mm; not below it gives 1, below it gives 0.

Task item: Check this compound for zone of inhibition at 12.5 µg/disc at or above 10 mm: Cc1cc(SCc2nnc(-c3ccc([N+](=O)[O-])cc3)s2)nc(SCc2nnc(-c3ccc([N+](=O)[O-])cc3)s2)n1
Reply: 1

Task item: Check this compound for zone of inhibition at 12.5 µg/disc at or above 10 mm: Cc1cc(SCc2nnc(-c3ccc(Br)cc3)o2)nc(SCc2nnc(-c3ccc(Br)cc3)o2)n1
Reply: 0

Task item: Check this compound for zone of inhibition at 12.5 µg/disc at or above 10 mm: Cc1ccc(-c2nnc(CSc3cc(C)nc(SCc4nnc(-c5ccc(C)cc5)n4N)n3)n2N)cc1
Reply: 0

Task item: Check this compound for zone of inhibition at 12.5 µg/disc at or above 10 mm: Cc1cc(SCc2nnc(-c3ccccc3)n2N)nc(SCc2nnc(-c3ccccc3)n2N)n1
Reply: 1

Task item: Check this compound for zone of inhibition at 12.5 µg/disc at or above 10 mm: Cc1cc(SCc2nnc(-c3ccc(Cl)cc3)n2N)nc(SCc2nnc(-c3ccc(Cl)cc3)n2N)n1
Reply: 1

Task item: Check this compound for zone of inhibition at 12.5 µg/disc at or above 10 mm: Cc1cc(SCc2nnc(-c3ccc([N+](=O)[O-])cc3)n2N)nc(SCc2nnc(-c3ccc([N+](=O)[O-])cc3)n2N)n1
Reply: 1

###

Could you please report measured MIC for the items listed next?
Tested on: Pseudomonas aeruginosa
Assay: Antibacterial activity against Pseudomonas aeruginosa after 24 hrs by turbidity-based broth dilution assay
Assay type: functional
The response must be a number in µg with no trailing unit.

Case Cc1cc(SCc2nnc(-c3ccc(Cl)cc3)s2)nc(SCc2nnc(-c3ccc(Cl)cc3)s2)n1 , Pseudomonas aeruginosa, MIC recorded as 6.25

Case Cc1cc(SCc2nnc(-c3ccc(Cl)cc3)n2N)nc(SCc2nnc(-c3ccc(Cl)cc3)n2N)n1 , Pseudomonas aeruginosa, MIC recorded as 25

Case Cc1cc(SCc2nnc(-c3ccc([N+](=O)[O-])cc3)n2N)nc(SCc2nnc(-c3ccc([N+](=O)[O-])cc3)n2N)n1 , Pseudomonas aeruginosa, MIC recorded as 12.5

Case O=C(N[C@H](CO)[C@H](O)c1ccc([N+](=O)[O-])cc1)C(Cl)Cl , Pseudomonas aeruginosa, MIC recorded as 6.25

Case Cc1cc(SCc2nnc(-c3ccc([N+](=O)[O-])cc3)s2)nc(SCc2nnc(-c3ccc([N+](=O)[O-])cc3)s2)n1 , Pseudomonas aeruginosa, MIC recorded as 6.25

###

Could you please report measured zone of inhibition at 100 µg/disc for the items listed next?
System: Pseudomonas aeruginosa
Experiment: Antibacterial activity against Pseudomonas aeruginosa assessed as diameter of inhibition zone at 100 ug/well after 24 hrs by agar well diffusion method
Format: functional
Details: read-out: DIZ
The response must be a number in mm with no trailing unit.

For reference, reported zone of inhibition at 100 µg/disc for Cc1cc(SCc2nnc(-c3ccc(Cl)cc3)s2)nc(SCc2nnc(-c3ccc(Cl)cc3)s2)n1 stands at 34

For reference, reported zone of inhibition at 100 µg/disc for Cc1cc(SCc2nnc(-c3ccc(Br)cc3)n2N)nc(SCc2nnc(-c3ccc(Br)cc3)n2N)n1 stands at 25

For reference, reported zone of inhibition at 100 µg/disc for Cc1cc(SCc2nnc(-c3ccc([N+](=O)[O-])cc3)s2)nc(SCc2nnc(-c3ccc([N+](=O)[O-])cc3)s2)n1 stands at 35

For reference, reported zone of inhibition at 100 µg/disc for Cc1cc(SCc2nnc(-c3ccccc3)o2)nc(SCc2nnc(-c3ccccc3)o2)n1 stands at 14

###

Tested on: Staphylococcus aureus
Assay: Antibacterial activity against Staphylococcus aureus after 24 hrs by turbidity-based broth dilution assay
Format: functional
Could you please report measured MIC for the items listed next?
The response must be a number in µg with no trailing unit.

For reference, reported MIC for Cc1cc(SCc2nnc(-c3ccc(Cl)cc3)s2)nc(SCc2nnc(-c3ccc(Cl)cc3)s2)n1 stands at 50

For reference, reported MIC for Cc1cc(SCc2nnc(-c3ccc(Cl)cc3)n2N)nc(SCc2nnc(-c3ccc(Cl)cc3)n2N)n1 stands at 100

For reference, reported MIC for O=C(N[C@H](CO)[C@H](O)c1ccc([N+](=O)[O-])cc1)C(Cl)Cl stands at 6.25

For reference, reported MIC for Cc1cc(SCc2nnc(-c3ccc([N+](=O)[O-])cc3)n2N)nc(SCc2nnc(-c3ccc([N+](=O)[O-])cc3)n2N)n1 stands at 100

For reference, reported MIC for Cc1cc(SCc2nnc(-c3ccc([N+](=O)[O-])cc3)s2)nc(SCc2nnc(-c3ccc([N+](=O)[O-])cc3)s2)n1 stands at 50

###

Tested on: Pseudomonas aeruginosa
Assay: Antibacterial activity against Pseudomonas aeruginosa assessed as diameter of inhibition zone at 25 ug/well after 24 hrs by agar well diffusion method
Assay type: functional
Details: read-out: DIZ
ENDPOINT_LABEL: zone of inhibition at 25 µg/disc
Give your result as the value with the unit written after it.

Case Cc1cc(SCc2nnc(-c3ccc([N+](=O)[O-])cc3)o2)nc(SCc2nnc(-c3ccc([N+](=O)[O-])cc3)o2)n1 , Pseudomonas aeruginosa, zone of inhibition at 25 µg/disc recorded as 14 mm

Case Cc1ccc(-c2nnc(CSc3cc(C)nc(SCc4nnc(-c5ccc(C)cc5)o4)n3)o2)cc1 , Pseudomonas aeruginosa, zone of inhibition at 25 µg/disc recorded as 8 mm

Case Cc1cc(SCc2nnc(-c3ccc(Br)cc3)o2)nc(SCc2nnc(-c3ccc(Br)cc3)o2)n1 , Pseudomonas aeruginosa, zone of inhibition at 25 µg/disc recorded as 11 mm

Case Cc1ccc(-c2nnc(CSc3cc(C)nc(SCc4nnc(-c5ccc(C)cc5)s4)n3)s2)cc1 , Pseudomonas aeruginosa, zone of inhibition at 25 µg/disc recorded as 12 mm

Case Cc1cc(SCc2nnc(-c3ccc([N+](=O)[O-])cc3)n2N)nc(SCc2nnc(-c3ccc([N+](=O)[O-])cc3)n2N)n1 , Pseudomonas aeruginosa, zone of inhibition at 25 µg/disc recorded as 26 mm

Case Cc1cc(SCc2nnc(-c3ccccc3)o2)nc(SCc2nnc(-c3ccccc3)o2)n1 , Pseudomonas aeruginosa, zone of inhibition at 25 µg/disc recorded as 9 mm

Case Cc1cc(SCc2nnc(-c3ccc(Cl)cc3)o2)nc(SCc2nnc(-c3ccc(Cl)cc3)o2)n1 , Pseudomonas aeruginosa, zone of inhibition at 25 µg/disc recorded as 12 mm

Case Cc1cc(SCc2nnc(-c3ccccc3)n2N)nc(SCc2nnc(-c3ccccc3)n2N)n1 , Pseudomonas aeruginosa, zone of inhibition at 25 µg/disc recorded as 16 mm

Case Cc1ccc(-c2nnc(CSc3cc(C)nc(SCc4nnc(-c5ccc(C)cc5)n4N)n3)n2N)cc1 , Pseudomonas aeruginosa, zone of inhibition at 25 µg/disc recorded as 11 mm

Case Cc1cc(SCc2nnc(-c3ccc([N+](=O)[O-])cc3)s2)nc(SCc2nnc(-c3ccc([N+](=O)[O-])cc3)s2)n1 , Pseudomonas aeruginosa, zone of inhibition at 25 µg/disc recorded as 31 mm

Case Cc1cc(SCc2nnc(-c3ccc(Cl)cc3)n2N)nc(SCc2nnc(-c3ccc(Cl)cc3)n2N)n1 , Pseudomonas aeruginosa, zone of inhibition at 25 µg/disc recorded as 21 mm

Case Cc1cc(SCc2nnc(-c3ccc(Br)cc3)n2N)nc(SCc2nnc(-c3ccc(Br)cc3)n2N)n1 , Pseudomonas aeruginosa, zone of inhibition at 25 µg/disc recorded as 20 mm

Case O=C(N[C@H](CO)[C@H](O)c1ccc([N+](=O)[O-])cc1)C(Cl)Cl , Pseudomonas aeruginosa, zone of inhibition at 25 µg/disc recorded as 27 mm

Case Cc1cc(SCc2nnc(-c3ccc(Br)cc3)s2)nc(SCc2nnc(-c3ccc(Br)cc3)s2)n1 , Pseudomonas aeruginosa, zone of inhibition at 25 µg/disc recorded as 23 mm

Case Cc1cc(SCc2nnc(-c3ccc(Cl)cc3)s2)nc(SCc2nnc(-c3ccc(Cl)cc3)s2)n1 , Pseudomonas aeruginosa, zone of inhibition at 25 µg/disc recorded as 29 mm

Case Cc1cc(SCc2nnc(-c3ccccc3)s2)nc(SCc2nnc(-c3ccccc3)s2)n1 , Pseudomonas aeruginosa, zone of inhibition at 25 µg/disc recorded as 19 mm
